Tested on: Escherichia coli ATCC 25922
experimental_readout: MIC

structure_string=CC[C@H](C)[C@H](NC(=O)[C@H](Cc1ccccc1)NC(=O)[C@H](CO)NC(=O)[C@H](CCCCN)NC(=O)[C@H](CC(C)C)NC(=O)[C@H](CCCCN)NC(=O)[C@H](CCCCN)NC(=O)[C@H](CC(C)C)NC(=O)[C@@H](NC(=O)[C@@H](NC(=O)[C@@H](N)Cc1ccccc1)[C@@H](C)O)[C@@H](C)CC)C(=O)N[C@@H](CCCCN)C(=O)O reported_value="> 64 µM"
structure_string=CC(C)C[C@H](NC(=O)[C@H](CC(C)C)NC(=O)[C@H](CCCCN)NC(=O)[C@H](CC(C)C)NC(=O)CNC(=O)[C@H](CC(C)C)NC(=O)[C@H](CO)NC(=O)[C@H](CC(C)C)NC(=O)[C@H](CC(C)C)NC(=O)[C@H](CC(C)C)NC(=O)[C@H](CO)NC(=O)[C@H](CC(C)C)NC(=O)[C@@H](N)CCCCN)C(N)=O reported_value="> 25 µM"
structure_string=CC(C)C[C@H](NC(=O)[C@H](CCCN=C(N)N)NC(=O)[C@H](CCCN=C(N)N)NC(=O)[C@H](CC(C)C)NC(=O)[C@H](Cc1c[nH]c2ccccc12)NC(=O)[C@H](CCCN=C(N)N)NC(=O)[C@H](CCCN=C(N)N)NC(=O)[C@H](CCCN=C(N)N)NC(=O)[C@H](CC(C)C)NC(=O)[C@H](CCCN=C(N)N)NC(=O)[C@H](CCCN=C(N)N)NC(=O)[C@@H](N)CC(C)C)C(=O)N[C@@H](CCCN=C(N)N)C(=O)N[C@@H](CCCN=C(N)N)C(=O)N[C@@H](CCCN=C(N)N)C(N)=O reported_value="> 57.7 µM"
